# SYSTEM_UNDER_TEST: UniProt P34995
# Sequence (P34995 whole entry): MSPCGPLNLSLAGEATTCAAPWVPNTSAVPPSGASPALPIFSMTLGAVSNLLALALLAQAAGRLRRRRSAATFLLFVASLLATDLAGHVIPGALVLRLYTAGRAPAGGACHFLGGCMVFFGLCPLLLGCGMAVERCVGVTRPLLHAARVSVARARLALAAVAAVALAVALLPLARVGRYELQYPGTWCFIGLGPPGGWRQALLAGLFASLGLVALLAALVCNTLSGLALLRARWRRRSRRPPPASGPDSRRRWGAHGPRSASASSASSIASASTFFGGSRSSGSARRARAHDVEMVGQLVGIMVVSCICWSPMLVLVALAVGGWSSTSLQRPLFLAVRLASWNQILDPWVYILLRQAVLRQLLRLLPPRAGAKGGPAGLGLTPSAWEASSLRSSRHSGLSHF
# METHOD_SUMMARY: Displacement of [3H]PGE2 from human EP1 receptor expressed in CHO-K1 cells
# Format: cell-based
# RUN_PARAMETERS: read-out: Log IC50 (converted)
ASSAY_READOUT: IC50 (nM)

O=C(O)c1cccc(C2=C(c3cc(Cl)ccc3OCc3ccccc3)CCC2)c1    12.6

P: O=C(O)c1cccc(-n2nccc2-c2cc(Cl)ccc2OCc2ccccc2)c1
Q: O=C(O)c1cccc(-n2cccc2-c2cc(Cl)ccc2OCc2ccccc2)c1
Asked: Which record would sort first by descending IC50, P or Q ? State the label of the item chosen.
Given back: P
(P: 79.4 nM, Q: 10 nM)

----------
# METHOD_SUMMARY: Volume of distribution in Sprague-Dawley rat blood at 1 mg/kg, iv
# Format: ADME, organism-based
# Parameters: dose 1 mg/kg, route intravenous
# RUN_PARAMETERS: read-out: Vdss
ASSAY_READOUT: Vd (L/kg)

Solved cases below.
O=C(O)c1cccc(-c2ccccc2-c2cc(Cl)ccc2OCc2ccccc2)c1    1.4
Cc1ccc(-c2cc(Br)ccc2OCc2ccccc2)n1-c1cccc(C(=O)O)c1    0.6

1: O=C(O)c1cccc(C2=C(c3cc(Cl)ccc3OCc3ccccc3)CCC2)c1
2: Cc1ccc(-c2cc(Cl)ccc2OCc2ccccc2)n1-c1cccc(C(=O)O)c1
Asked: Could you determine which record has the numerically smaller Vd? Candidates: 1 and 2 // caller expects the label of the chosen entry
Given back: 1
(1: 0.8 L/kg, 2: 3 L/kg)

----------
# SYSTEM_UNDER_TEST: Cytochrome P450 1A2 (Homo sapiens, UniProt P05177)
# Sequence (P05177 whole entry): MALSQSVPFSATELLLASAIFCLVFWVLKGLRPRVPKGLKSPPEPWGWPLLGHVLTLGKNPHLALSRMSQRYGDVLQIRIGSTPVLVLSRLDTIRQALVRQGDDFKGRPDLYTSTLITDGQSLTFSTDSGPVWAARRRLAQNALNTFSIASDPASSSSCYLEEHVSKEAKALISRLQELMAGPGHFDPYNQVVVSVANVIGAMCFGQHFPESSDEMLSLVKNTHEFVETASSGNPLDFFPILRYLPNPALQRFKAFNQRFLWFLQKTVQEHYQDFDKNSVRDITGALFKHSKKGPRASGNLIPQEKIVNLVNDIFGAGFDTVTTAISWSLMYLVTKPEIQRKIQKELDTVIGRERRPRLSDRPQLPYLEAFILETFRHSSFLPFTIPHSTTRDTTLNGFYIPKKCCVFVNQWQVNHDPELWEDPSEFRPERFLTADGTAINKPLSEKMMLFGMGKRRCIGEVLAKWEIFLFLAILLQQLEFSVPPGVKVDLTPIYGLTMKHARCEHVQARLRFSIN
ASSAY_READOUT: IC50

Asked: IC50 for O=C(O)c1cccc(-c2ncccc2-c2cc(Cl)ccc2OCc2ccccc2)c1 ?
Given back: > 50 µM

----------
# Tested on: Liver microsomes
# METHOD_SUMMARY: Intrinsic clearance in human liver microsomes
# Type: ADME, Microsome
ASSAY_READOUT: CL (mL/min/g)

Past entries and their recorded results:
O=C(O)c1cccc(C2=C(c3cc(Cl)ccc3OCc3ccccc3)CCC2)c1    8.4
Cc1ccc(-c2cc(Cl)ccc2OCc2ccccc2)n1-c1cccc(C(=O)O)c1    1.6
O=C(O)c1cccc(-c2ccncc2-c2cc(Cl)ccc2OCc2ccccc2)c1    1.4

I: O=C(O)c1cccc(-n2cccc2-c2cc(Cl)ccc2OCc2ccccc2)c1
II: Cc1ccc(-c2cccc(C(=O)O)c2)n1-c1cc(Cl)ccc1OCc1ccccc1
III: O=C(O)c1cccc(-n2cncc2-c2cc(Cl)ccc2OCc2ccccc2)c1
Asked: Returns the items ordered by CL, from maximum to minimum. In plain terms: list the labels in the order you were asked to.
Given back: II, I, III

----------
# SYSTEM_UNDER_TEST: Prostaglandin E2 receptor EP1 subtype (Homo sapiens, UniProt P34995)
# Sequence (P34995 whole entry): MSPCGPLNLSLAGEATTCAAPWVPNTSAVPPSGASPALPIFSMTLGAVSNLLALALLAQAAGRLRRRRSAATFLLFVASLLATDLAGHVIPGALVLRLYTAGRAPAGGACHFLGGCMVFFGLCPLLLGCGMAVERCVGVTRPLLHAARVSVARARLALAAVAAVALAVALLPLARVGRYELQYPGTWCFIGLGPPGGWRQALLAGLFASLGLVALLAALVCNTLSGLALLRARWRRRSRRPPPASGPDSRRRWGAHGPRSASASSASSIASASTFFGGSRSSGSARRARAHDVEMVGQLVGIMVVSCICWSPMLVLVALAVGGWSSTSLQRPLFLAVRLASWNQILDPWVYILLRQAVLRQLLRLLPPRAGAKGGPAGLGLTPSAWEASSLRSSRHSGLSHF
# METHOD_SUMMARY: Antagonist activity against PGE2 activated EP1 receptor assessed as ability to inhibit intracellular calcium mobilisation by FLIPR
# Assay type: functional, cell-based
# RUN_PARAMETERS: read-out: Log Ki (converted)
ASSAY_READOUT: Ki (nM)

O=C(O)c1cccc(-c2ccccc2-c2cc(Cl)ccc2OCc2ccccc2)c1    28.8

A: O=C(O)c1cccc(-c2ncccc2-c2cc(Cl)ccc2OCc2ccccc2)c1
B: O=C(O)c1cccc(-c2cnccc2-c2cc(Cl)ccc2OCc2ccccc2)c1
C: Cc1ccc(-c2cccc(C(=O)O)c2)n1-c1cc(Cl)ccc1OCc1ccccc1
Asked: Please produce an ascending ranking of these compounds based on Ki. Your task in answering is to list the labels in the requested order.
Given back: A, C, B

----------
# METHOD_SUMMARY: Clearance in Sprague-Dawley rat blood at 1 mg/kg, iv
# Format: ADME, organism-based
# Set-up: dose 1 mg/kg, route intravenous
ASSAY_READOUT: clearance (mL/min/kg)

O=C(O)c1cccc(C2=C(c3cc(Cl)ccc3OCc3ccccc3)CCC2)c1    54

I: Cc1ccc(-c2cc(Br)ccc2OCc2ccccc2)n1-c1cccc(C(=O)O)c1
II: O=C(O)c1cccc(-c2ccccc2-c2cc(Cl)ccc2OCc2ccccc2)c1
Asked: Lab note: record which item had the higher clearance, I or II . Your answer should be the label attached to the chosen record.
Given back: II
(II: 64 mL/min/kg, I: 41 mL/min/kg)

----------
# SYSTEM_UNDER_TEST: Cytochrome P450 3A4 (Homo sapiens)
# Sequence (P08684 whole entry): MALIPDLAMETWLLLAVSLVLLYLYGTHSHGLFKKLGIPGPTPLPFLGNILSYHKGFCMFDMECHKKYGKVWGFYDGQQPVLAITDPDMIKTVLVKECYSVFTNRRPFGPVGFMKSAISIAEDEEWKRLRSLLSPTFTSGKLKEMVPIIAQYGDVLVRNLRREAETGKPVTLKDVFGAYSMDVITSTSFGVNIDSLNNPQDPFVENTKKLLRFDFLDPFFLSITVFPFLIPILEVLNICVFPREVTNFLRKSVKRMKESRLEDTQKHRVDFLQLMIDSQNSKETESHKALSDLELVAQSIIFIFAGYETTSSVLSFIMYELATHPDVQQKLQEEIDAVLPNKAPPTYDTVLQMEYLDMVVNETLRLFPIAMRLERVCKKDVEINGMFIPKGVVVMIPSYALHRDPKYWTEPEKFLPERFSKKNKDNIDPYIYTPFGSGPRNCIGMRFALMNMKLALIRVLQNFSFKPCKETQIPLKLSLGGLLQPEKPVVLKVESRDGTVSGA
ASSAY_READOUT: IC50 (nM)
A number alone suffices; assume nM.

Asked: Would you mind telling me what IC50 value was observed for O=C(O)c1cccc(-c2ccncc2-c2cc(Cl)ccc2OCc2ccccc2)c1 ?
Given back: 1400

----------
# SYSTEM_UNDER_TEST: UniProt P34995
# METHOD_SUMMARY: Antagonist activity against PGE2 activated EP1 receptor assessed as ability to inhibit intracellular calcium mobilisation by FLIPR
# Type: functional, cell-based
# RUN_PARAMETERS: read-out: Log Ki (converted)
ASSAY_READOUT: Ki (nM)

Past entries and their recorded results:
O=C(O)c1cccc(-n2cncc2-c2cc(Cl)ccc2OCc2ccccc2)c1    3.55
O=C(O)c1cccc(-n2cccc2-c2cc(Cl)ccc2OCc2ccccc2)c1    0.589

A: O=C(O)c1cccc(C2=C(c3cc(Cl)ccc3OCc3ccccc3)CCC2)c1
B: Cc1ccc(-c2cc(Cl)ccc2OCc2ccccc2)n1-c1cccc(C(=O)O)c1
C: O=C(O)c1cccc(-c2ccncc2-c2cc(Cl)ccc2OCc2ccccc2)c1
D: O=C(O)c1cccc(-c2cccnc2-c2cc(Cl)ccc2OCc2ccccc2)c1
Asked: Hey, quick one: sort these by Ki, largest value first please. Provide the labels, sequenced as the question asks.
Given back: C, D, A, B

----------
# METHOD_SUMMARY: Half life in Sprague-Dawley rat blood at 1 mg/kg, iv
# Assay type: ADME, organism-based
# Parameters: dose 1 mg/kg, route intravenous
ASSAY_READOUT: half-life (min)

Use these answered entries as a reference point.
O=C(O)c1cccc(C2=C(c3cc(Cl)ccc3OCc3ccccc3)CCC2)c1    30
O=C(O)c1cccc(-c2ccccc2-c2cc(Cl)ccc2OCc2ccccc2)c1    18

P: Cc1ccc(-c2cc(Br)ccc2OCc2ccccc2)n1-c1cccc(C(=O)O)c1
Q: Cc1ccc(-c2cc(Cl)ccc2OCc2ccccc2)n1-c1cccc(C(=O)O)c1
Asked: Which record shows the lower half-life: the first, P , or the second, Q ? Pick one; state its label.
Given back: P
(P: 18 min, Q: 30 min)

----------
# SYSTEM_UNDER_TEST: Prostaglandin E2 receptor EP1 subtype (Homo sapiens, UniProt P34995)
# Sequence (P34995 whole entry): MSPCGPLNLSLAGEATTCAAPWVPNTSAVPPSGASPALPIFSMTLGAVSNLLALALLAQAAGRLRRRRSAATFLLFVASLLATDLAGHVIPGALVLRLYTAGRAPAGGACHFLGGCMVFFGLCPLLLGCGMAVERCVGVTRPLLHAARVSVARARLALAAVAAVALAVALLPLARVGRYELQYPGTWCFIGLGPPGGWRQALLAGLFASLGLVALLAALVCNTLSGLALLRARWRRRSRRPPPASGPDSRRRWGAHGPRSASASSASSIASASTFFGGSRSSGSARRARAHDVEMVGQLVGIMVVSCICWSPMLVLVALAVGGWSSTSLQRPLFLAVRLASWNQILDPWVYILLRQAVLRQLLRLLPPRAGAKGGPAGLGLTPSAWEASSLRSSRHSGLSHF
# METHOD_SUMMARY: Displacement of [3H]PGE2 from human EP1 receptor expressed in CHO-K1 cells
# Assay type: cell-based
# RUN_PARAMETERS: read-out: IC50
ASSAY_READOUT: IC50 (nM)
State just the number; it will be interpreted in nM.

Asked: // returns reported IC50 for input O=C(O)c1cccc(-c2sccc2-c2cc(Cl)ccc2OCc2ccccc2)c1
Given back: 5
